target: long form of human GPR120 (Homo sapiens); assay: Human GPR120 DiscoveRx PathHunter Beta-Arrestin assay, Procedure β-arrestin A
Sequence (Q5NUL3 1-377 isoform Q5NUL3-1): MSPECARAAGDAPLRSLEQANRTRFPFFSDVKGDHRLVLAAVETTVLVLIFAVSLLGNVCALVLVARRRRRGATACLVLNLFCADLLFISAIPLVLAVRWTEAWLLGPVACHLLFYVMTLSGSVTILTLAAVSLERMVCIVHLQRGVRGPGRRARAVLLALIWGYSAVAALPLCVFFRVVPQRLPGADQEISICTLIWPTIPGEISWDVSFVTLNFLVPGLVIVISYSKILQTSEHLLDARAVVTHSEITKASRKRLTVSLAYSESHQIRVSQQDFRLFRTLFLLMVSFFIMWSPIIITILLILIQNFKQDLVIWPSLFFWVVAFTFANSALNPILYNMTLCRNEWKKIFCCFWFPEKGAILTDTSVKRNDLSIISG
Sequence (P32121 whole entry partner): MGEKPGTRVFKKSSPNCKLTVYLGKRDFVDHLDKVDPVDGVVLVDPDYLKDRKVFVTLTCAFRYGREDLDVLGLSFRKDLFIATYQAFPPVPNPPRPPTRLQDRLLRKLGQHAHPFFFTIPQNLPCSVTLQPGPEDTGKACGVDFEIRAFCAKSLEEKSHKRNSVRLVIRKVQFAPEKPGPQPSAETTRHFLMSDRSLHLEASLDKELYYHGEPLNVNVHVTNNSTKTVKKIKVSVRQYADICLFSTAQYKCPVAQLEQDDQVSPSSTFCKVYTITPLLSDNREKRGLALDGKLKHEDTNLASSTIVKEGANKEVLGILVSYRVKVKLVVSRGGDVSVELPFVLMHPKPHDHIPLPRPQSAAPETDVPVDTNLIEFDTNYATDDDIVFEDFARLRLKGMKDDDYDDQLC
measurement.type: pEC50
The read-out pEC50 is expressed as -log10 of concentration in moles per litre.

A selection of reference data follows.
>  <molecule>
CC(Cc1ccc(OCC2=C(c3ccc(Cl)cc3)CCC2)c(F)c1)C(=O)O (centres unmarked)

>  <pEC50>
6.17

$$$$
>  <molecule>
Cc1cc(CCC(=O)O)cc(Br)c1OCC1=C(c2ccc(Cl)cc2)CCC1

>  <pEC50>
6.29

$$$$
>  <molecule>
Cc1cc(CCC(=O)O)ccc1OCC1=C(c2ccc(F)cc2F)CCC(F)(F)C1

>  <pEC50>
6.97

$$$$
>  <molecule>
CCOc1ccc(C2=C(COc3c(F)cc(CCC(=O)O)cc3F)CCC2)cn1

>  <pEC50>
5.89

$$$$
>  <molecule>
CCOc1ccc(C2=C(COc3ccc(CCC(=O)O)cc3C)CCC2)cn1

>  <pEC50>
6.23

$$$$

Input: I would be grateful if you could share the reported pEC50 for Cc1cc(CCC(=O)O)ccc1OCC1=C(c2ccc(Cl)cc2)CC(F)(F)C1 .
Output: 7.54

Input: Can you share its pEC50? I mean this molecule: Cc1cc(CCC(=O)O)ccc1OCC1=C(c2ccc(Cl)s2)CCC(F)(F)C1
Output: 6.74

Input: Any idea what pEC50 was measured for Cc1ncc(C2=C(COc3c(F)cc(CCC(=O)O)cc3F)CC(F)(F)CC2)s1 ?
Output: 5.99
